# ASSAY_SYSTEM: β1 adrenergic receptor (β1AR*, with mutations R68S, Y227A, A282L, F237A, and F338M) (Meleagris gallopavo, UniProt P07700, A282L/F327A/F338M/R68S/Y227A)
# Sequence (P07700 whole entry R68S/Y227A/A282L/F327A/F338M): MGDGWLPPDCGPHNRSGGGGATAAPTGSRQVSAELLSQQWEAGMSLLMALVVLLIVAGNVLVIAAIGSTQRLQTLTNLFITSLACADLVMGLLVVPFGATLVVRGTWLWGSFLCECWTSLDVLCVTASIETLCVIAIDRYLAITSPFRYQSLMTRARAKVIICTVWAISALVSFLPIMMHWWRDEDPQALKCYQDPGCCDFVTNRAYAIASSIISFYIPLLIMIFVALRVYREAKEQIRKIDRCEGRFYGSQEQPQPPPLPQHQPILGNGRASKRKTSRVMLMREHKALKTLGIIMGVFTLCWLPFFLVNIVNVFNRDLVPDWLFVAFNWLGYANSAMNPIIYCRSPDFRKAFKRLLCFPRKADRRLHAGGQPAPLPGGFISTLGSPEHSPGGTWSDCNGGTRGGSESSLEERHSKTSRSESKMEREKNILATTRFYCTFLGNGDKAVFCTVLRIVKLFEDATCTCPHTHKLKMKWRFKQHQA
# ASSAY: biochemical
// values below are reported Kd
Give the number; nM is assumed, so skip it.

For orientation, consider the following solved cases.
C=CCc1ccccc1OCC(O)CNC(C)C (stereo not drawn) | 19
CC(CCc1ccccc1)NCC(O)c1ccc(O)c(C(N)=O)c1 (stereo not drawn) | 95

With those in mind, consider the next molecule.
// query Kd value for entry CC(C)(C)NCC(O)c1cc(Cl)c(N)c(Cl)c1 (stereo not drawn)
540
